assay: qHTS of pediatric cancer cell lines to identify multiple opportunities for drug repurposing: Primary screen for DAOY cells (AID 1347090); details: DAOY medulloblastoma viability, CellTiter-Glo luminescence, 48 h; series mostly up to 46 µM; note: potency is the fitted concentration of half-maximal effect; nearly all actives have a fitted effect of over 55% in size
Records with an inconclusive call do not appear. Calls of active or inactive are those of the source. Calls come from the whole dose curve; as a rule, active = well fitted cell-killing curve with a large enough effect; inconclusive = small, poorly fitted or top-dose-only effect; inactive = flat fitted curve, though single readings scatter.
Recorded Endpoint: Potency

Worked cases, Potency given:
• FC(F)(F)c1ccc(Nc2nc3ccc(Oc4ccnc(-c5ncc(C(F)(F)F)[nH]5)c4)cc3[nH]2)cc1 = 18.7 µM (active)
• CC(=O)NCC(=O)N1[C@H]2CC[C@H]1c1cc(Nc3ncc(C(F)(F)F)c(NC4CCC4)n3)ccc12 = 18.7 µM (active)

Attention now shifts to the item below.
The recorded Potency for CCS(=O)(=O)Nc1ccc2[nH]c(O)c(C(=Nc3ccc(CN4CCCCC4)cc3)c3ccccc3)c2c1 is 7.43 µM (active)

###

experiment: Quantitative High-Throughput drug screen in 47 multiple myeloma cell lines against the NCATS MIPE library collection: KMS34_JCRB cell viability assay (AID 1918985); conditions: KMS34 myeloma viability, CellTiter-Glo ATP luminescence, 48 h; series mostly up to 45.8 µM; note: nearly all actives have a fitted effect of over 40% in size
Inconclusive results are not listed. Activity calls are given as the source filed them. Calls come from the whole dose curve; as a rule, active = well fitted cell-killing curve with a large enough effect; inconclusive = small, poorly fitted or top-dose-only effect, or effect the other way; inactive = no such curve, though single readings can be large or run the other way.
Lab note: assign the record to one of active, inactive

Use the examples below as a reference point.
* COc1cc(C)c(Sc2cnc(NC(=O)c3ccc(CNC(C)C(C)(C)C)cc3)s2)cc1C(=O)N1CCN(C(C)=O)CC1 (stereo unspecified) | active
* CS[C@H]1SC[C@@H]2C(=O)N(C)[C@H](C(C)C)C(=O)OC[C@H](NC(=O)c3cnc4ccccc4n3)C(=O)N[C@H](C)C(=O)N(C)[C@@H]1C(=O)N(C)[C@H](C(C)C)C(=O)OC[C@H](NC(=O)c1cnc3ccccc3n1)C(=O)N[C@H](C)C(=O)N2C | active
* CCOc1cc2ncc(C#N)c(Nc3ccc(OCc4ccccn4)c(Cl)c3)c2cc1NC(=O)C=CCN(C)C | active
* O=C(Nc1cccc(Nc2ncc(Br)c(NCCc3cnc[nH]3)n2)c1)N1CCCC1 | active
* C[C@H](NC(=O)C(C#N)=Cc1cccc(Br)n1)c1ccccc1 | active

# outcome recorded in this test, key = C=CC[C@@H]1C=C(C)C[C@H](C)C[C@H](OC)[C@H]2O[C@@](O)(C(=O)C(=O)N3CCCC[C@H]3C(=O)O[C@H](C(C)=C[C@@H]3CC[C@H](O)[C@H](OC)C3)[C@@H](C)[C@@H](O)CC1=O)[C@@H](C)C[C@@H]2OC
active

# outcome recorded in this test, key = CCc1c(O)cc(O)c(C(=O)c2ccc(OCCN3CCOCC3)c(OC)c2)c1CC(=O)N(CCOC)CCOC
active

# outcome recorded in this test, key = COC1=C(OC)C(=O)C(CC=C(C)CCC=C(C)CCC=C(C)CCC=C(C)CCC=C(C)CCC=C(C)CCC=C(C)CCC=C(C)CCC=C(C)CCC=C(C)C)=C(C)C1=O
inactive

# outcome recorded in this test, key = CC(=O)NCC(=O)N1[C@H]2CC[C@H]1c1cc(Nc3ncc(C(F)(F)F)c(NC4CCC4)n3)ccc12
active

# outcome recorded in this test, key = Cc1coc2c1C(=O)C(=O)c1c-2ccc2c(C)cccc12
active

###

experiment: qHTS for identification of novel therapeutic agents for treatment of microphthalmiaassociated transcription factor (MiT) renal cell carcinoma (RCC) (AID 1963991); settings: TFE3-RCC viability, CellTiter-Glo, 48 h; measured here: UOK145 Z-AUC; stronger effect = lower value;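 note: curves scaled with 100% = DMSO viability and 0% = empty wells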
Records with an inconclusive call do not appear.
Recorded Endpoint: z-score

Worked cases, z-score given:
- O=C(c1ccc(F)cc1)N1CCC[C@H](c2nc(-c3ccc(F)cc3)no2)C1: 0.391
- COC1=C(OC)C(=O)C(CC=C(C)CCC=C(C)CCC=C(C)CCC=C(C)CCC=C(C)CCC=C(C)CCC=C(C)CCC=C(C)CCC=C(C)CCC=C(C)C)=C(C)C1=O: 0.661
- C[C@@H]1[C@H](C)CC[C@]2(C(=O)O)CC[C@]3(C)C(=CC[C@@H]4[C@@]5(C)C[C@@H](O)[C@H](O)[C@@](C)(CO)[C@H]5CC[C@]43C)[C@@H]12: 0.0304

Attention now shifts to the item below.
The recorded z-score for N[C@H]1CN(c2c(F)cc3c(=O)c(C(=O)O)cn(C4C[C@@H]4F)c3c2Cl)CC12CC2 (some centres undefined) is -0.145
